target: SERT (Homo sapiens, UniProt P31645); test: hSERT membrane radioligand binding assay (3H-citalopram); set-up: expressed in transfected cells; host or cells: HEK-293; conditions: hSERT membranes (HEK-293), 1.0 nM 3H-citalopram; read-out: SERT pKi (converted)
Sequence (P31645 whole entry): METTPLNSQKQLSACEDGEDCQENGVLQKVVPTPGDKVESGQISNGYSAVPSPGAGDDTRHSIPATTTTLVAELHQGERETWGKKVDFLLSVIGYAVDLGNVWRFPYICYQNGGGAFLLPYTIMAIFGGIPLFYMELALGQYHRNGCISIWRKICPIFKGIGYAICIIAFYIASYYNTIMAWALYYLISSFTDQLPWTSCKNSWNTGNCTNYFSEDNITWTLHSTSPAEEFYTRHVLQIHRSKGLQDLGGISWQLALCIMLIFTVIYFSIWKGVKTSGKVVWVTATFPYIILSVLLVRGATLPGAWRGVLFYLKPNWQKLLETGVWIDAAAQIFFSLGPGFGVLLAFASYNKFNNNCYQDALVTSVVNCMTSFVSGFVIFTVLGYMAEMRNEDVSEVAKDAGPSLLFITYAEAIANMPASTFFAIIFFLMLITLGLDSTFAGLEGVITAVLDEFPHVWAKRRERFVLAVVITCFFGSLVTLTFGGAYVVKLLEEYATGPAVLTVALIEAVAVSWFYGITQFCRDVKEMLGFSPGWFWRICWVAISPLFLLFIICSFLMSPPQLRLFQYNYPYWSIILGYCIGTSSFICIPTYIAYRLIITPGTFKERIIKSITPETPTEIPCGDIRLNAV
MEASUREMENT_KIND: Ki

For record CCOC[C@@H](Oc1cccc(Cl)c1Cl)[C@H]1CCNC1 the listed Ki is ≤ 10 nM

For record Clc1ccccc1O[C@H](C1CCOCC1)[C@@H]1CCNC1 the listed Ki is ≤ 100 nM

For record Clc1cc(Cl)cc(O[C@H](C2CCOCC2)[C@@H]2CCNC2)c1 the listed Ki is ≤ 10 nM

For record Clc1cccc(Cl)c1O[C@H](C1CCOCC1)[C@H]1CCNC1 the listed Ki is ≤ 100 nM

For record FC(F)(F)c1c(Cl)cccc1OC(C1CCOCC1)C1CCNC1 (stereo not drawn) the listed Ki is ≤ 10 nM

For record COCC(Oc1ccc(Cl)cc1C)C1CCNC1 (stereo not drawn) the listed Ki is ≤ 10 nM

For record CSCCC(Oc1cccc(Cl)c1Cl)C1CCNC1 (mixture of isomers) the listed Ki is ≤ 10 nM

For record COC[C@@H](Oc1c(Cl)cccc1Cl)[C@H]1CCNC1 the listed Ki is ≤ 100 nM

For record Fc1ccc(O[C@H](C2CCOCC2)[C@@H]2CCNC2)cc1 the listed Ki is ≤ 100 nM
